EXPERIMENT: Plasma stability
Assay type: in vitro ADME
DETAILS: dog
MEASURED_QUANTITY: half-life

[
  {
    "MOLECULE": "O=[N+]([O-])c1ccc(-c2nc3cccc(O)c3[nH]2)o1 [Compound 3e]",
    "MEASURED_QUANTITY": "half-life",
    "TEST_RESULT": "336 min"
  }
]

###

EXPERIMENT: Plasma stability
Format: in vitro ADME
DETAILS: mouse
MEASURED_QUANTITY: half-life (h)

[
  {
    "CHEMICAL_STRING": "O=[N+]([O-])c1ccc(-c2nc3cccc(O)c3[nH]2)o1",
    "TEST_RESULT": 3.6
  }
]
